# measured_on: ras p21 protein
# procedure_text: Ras p21 Nucleotide Exchange Assay (inhibition of ^3H-GDP binding to p21 ras)
# Assay type: biochemical
# conditions: read-out: IC50 in the ras p21 assay
# Experimental: Ras p21 Nucleotide Exchange Assay The conditions for assay of nucleotide exchange inhibitors was adapted from Hall, A. and A. J. Self. 1986 J. Biol. Chem. 261: 10963-10965, which is hereby incorporated by reference. 0.5 μM ras p21 protein was incubated in 50 μls exhange buffer (50 mM Tris-HCl pH 7.5, 5 mM MgCl2, 50 mM NaCl and 10 EDTA) on ice. […]
pIC50: −log10 of the molar value.
result_type: pIC50

COc1ccc2nc3c(c(C)nn3[C@@H]3O[C@H](C(O)CC(=O)c4ccccc4)[C@H]4OC(=S)O[C@H]43)c(Cl)c2c1 (stereo partly drawn) : 5.82
Cc1nn([C@@H]2O[C@H](COC(=O)c3ccccc3)[C@@H](OC(=O)c3ccccc3)[C@H]2OC(=O)c2ccccc2)c2nc3ccc(O)cc3c(Cl)c12 : 5.00
COc1ccc2nc3c(cc2c1)c(C)nn3[C@@H]1O[C@H](COC(=O)c2ccccc2)[C@@H](O)[C@H]1O : 4.30
